Origin of the recorded values: ChEMBL document CHEMBL1255526

# Target or test system: Substance-P receptor (Homo sapiens, UniProt P25103)
# Sequence (P25103 whole entry): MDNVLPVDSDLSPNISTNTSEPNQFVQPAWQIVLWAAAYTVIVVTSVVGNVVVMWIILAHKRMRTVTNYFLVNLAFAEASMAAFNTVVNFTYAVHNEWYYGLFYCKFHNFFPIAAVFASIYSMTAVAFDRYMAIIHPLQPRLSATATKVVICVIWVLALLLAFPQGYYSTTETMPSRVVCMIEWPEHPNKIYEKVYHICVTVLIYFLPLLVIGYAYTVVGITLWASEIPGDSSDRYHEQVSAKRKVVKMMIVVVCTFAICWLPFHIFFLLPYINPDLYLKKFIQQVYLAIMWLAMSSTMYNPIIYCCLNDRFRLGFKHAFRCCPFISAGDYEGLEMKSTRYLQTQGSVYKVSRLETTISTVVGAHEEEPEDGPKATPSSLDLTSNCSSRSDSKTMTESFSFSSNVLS
# Procedure text: Displacement of [125I]substance P from human NK1 receptor expressed in CHO cells
# Type: cell-based
Reported metric: IC50 (nM)
Please state the figure in nM; there is no need to write the unit.

// solved cases for IC50 follow
{"columns": ["Compound", "IC50 / nM"],
 "data": [
  ["CC[C@]1(O)C[C@H]2[C@H]3[C@H](c4ccc(F)cc4)[C@@H](O[C@H](C)c4cc(C(F)(F)F)cc(C(F)(F)F)c4)CN3C(=O)[C@H]2C1", 0.16],
  ["C[C@@H](O[C@H]1CN2C(=O)[C@H]3C[C@H](NCc4ccccc4)C[C@H]3[C@H]2[C@@H]1c1ccc(F)cc1)c1cc(C(F)(F)F)cc(C(F)(F)F)c1", 0.14],
  ["C[C@@H](O[C@H]1CN2C(=O)C3CNCC3[C@H]2[C@@H]1c1ccc(F)cc1)c1cc(C(F)(F)F)cc(C(F)(F)F)c1 (stereo in doubt; 6b) [FIRST ELUDED ISOMER]", 0.31],
  ["C[C@@H](O[C@H]1CN2C(=O)[C@H]3C[C@H](O)C[C@H]3[C@H]2[C@@H]1c1ccc(F)cc1)c1cc(C(F)(F)F)cc(C(F)(F)F)c1", 0.08],
  ["CC[C@@]1(O)C[C@H]2[C@H]3[C@H](c4ccc(F)cc4)[C@@H](O[C@H](C)c4cc(C(F)(F)F)cc(C(F)(F)F)c4)CN3C(=O)[C@H]2C1", 0.21]
]}

Now look at this one.
Supply reported IC50 belonging to this compound: C[C@@H](O[C@H]1CN2C(=O)[C@H]3C[C@@H](NCc4ccccc4)C[C@H]3[C@H]2[C@@H]1c1ccc(F)cc1)c1cc(C(F)(F)F)cc(C(F)(F)F)c1
0.17

---

# Target or test system: PXR (nuclear receptor subfamily 1 group I member 2) (Homo sapiens, UniProt O75469)
# Sequence (O75469 whole entry): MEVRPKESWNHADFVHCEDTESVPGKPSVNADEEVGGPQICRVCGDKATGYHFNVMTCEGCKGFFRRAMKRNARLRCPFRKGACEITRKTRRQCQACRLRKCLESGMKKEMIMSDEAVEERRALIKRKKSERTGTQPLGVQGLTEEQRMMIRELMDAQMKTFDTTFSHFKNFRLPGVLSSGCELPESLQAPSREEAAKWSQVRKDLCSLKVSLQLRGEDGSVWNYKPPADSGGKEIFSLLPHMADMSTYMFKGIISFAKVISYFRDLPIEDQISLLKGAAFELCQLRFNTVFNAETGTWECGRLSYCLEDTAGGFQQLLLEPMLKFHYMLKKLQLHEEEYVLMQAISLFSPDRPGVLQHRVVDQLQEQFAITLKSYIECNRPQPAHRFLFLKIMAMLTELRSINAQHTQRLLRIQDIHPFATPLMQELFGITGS
# Procedure text: Inhibition of human PXR induction at 10 uM
Reported metric: Emax at 10 µM

// solved cases for Emax at 10 µM follow
{"columns": ["Smiles repr", "Emax at 10 µM"],
 "data": [
  ["C[C@@H](O[C@H]1CN2C(=O)[C@H]3C[C@H](N)C[C@H]3[C@H]2[C@@H]1c1ccc(F)cc1)c1cc(C(F)(F)F)cc(C(F)(F)F)c1", "0%"],
  ["CC[C@]1(O)C[C@H]2[C@H]3[C@H](c4ccc(F)cc4)[C@@H](O[C@H](C)c4cc(C(F)(F)F)cc(C(F)(F)F)c4)CN3C(=O)[C@H]2C1", "51%"]
]}

Now look at this one.
Supply reported Emax at 10 µM belonging to this compound: C[C@@H](O[C@H]1CN2C(=O)CC[C@H]2[C@@H]1c1ccc(F)cc1)c1cc(C(F)(F)F)cc(C(F)(F)F)c1
50%

---

# Procedure text: Mean residence time in rat
# Format: ADME, organism-based
# Protocol conditions: in vivo
Reported metric: MRT (h)
Please state the figure in h; there is no need to write the unit.

Supply reported MRT belonging to this molecule: C[C@@H](O[C@H]1CN2C(=O)[C@H]3C[C@@](C)(O)C[C@H]3[C@H]2[C@@H]1c1ccc(F)cc1)c1cc(C(F)(F)F)cc(C(F)(F)F)c1
4.67
